biological target: Glypican-3 (GPC3) (UniProt P51654;P51654 P51654:25-358,P51654:359-554); assay: flow; GPC3+ HEK293 cells; settings: tags: overexpressed in engineered HEK293 cells (GPC3+ HEK293); stem 2 extended by 1 bp
OBSERVATION_TYPE: Kd (nM)
Write the value in nM as a bare number.

Ask | Bench note: what Kd did CGUCAUCGGGUUGCUACCCAAGGCCCAGGAGGGCGAUGACG (ssRNA, fully 2'-OMe) [GRX1187] show?
Reply | 64.2
